Recorded Activity by entry
# Tested on: MES-SA
# Assay info: Induction of apoptosis in human MES-SA cells assessed as live cells at 100 nM incubated for 24 hrs by live/dead orange and TUNEL staining based flow cytometry analysis relative to control
# Format: functional
Numbers only; they are read as %.

So what does the record say about Activity for COc1cc(S(=O)(=O)Nc2ccc3c(c2)c(C#N)cn3C)cc(OC)c1OC ?
88

Further, for COc1cc(S(=O)(=O)N(C)c2ccc3c(c2)c(C(N)=O)cn3C)cc(OC)c1OC ?
91.8

Further, for COc1cc(S(=O)(=O)N(C)c2ccc3c(ccn3C)c2)cc(OC)c1OC ?
90

Further, for COc1cc(S(=O)(=O)N(CC#N)c2ccc3c(ccn3C)c2)cc(OC)c1OC ?
92

Further, for COc1cc(S(=O)(=O)N(C)c2ccc3c(c2)c(C#N)cn3C)cc(OC)c1OC ?
91.4

Further, for COc1cc(S(=O)(=O)Nc2ccc3c(ccn3C)c2)cc(OC)c1OC ?
90.3

---

# Tested on: HeLa
# Assay info: Antiproliferative activity against human HeLa cells assessed as inhibition of cell growth incubated for 72 hrs in absence of verapamil by MTT assay
# Assay type: functional, cell-based
Recorded pIC50 by entry
Convention used: pIC50 is expressed as -log10 of the molar concentration.

As a guide, the following entries are already answered.
Write down the reported pIC50 of COc1cc(S(=O)(=O)N(CC#N)c2ccc3c(c2)c(C(N)=O)cn3C)cc(OC)c1OC , test system: HeLa.
7.29

Further, for COc1cc(S(=O)(=O)N(C)c2ccc3c(c2)c(C=O)cn3C)cc(OC)c1OC ?
7.74

Further, for COc1cc(S(=O)(=O)Nc2ccc3c(ccn3C)c2)cc(OC)c1OC ?
7.64

Note: attention shifts to another entry.
Write down the reported pIC50 of COc1cc(S(=O)(=O)N(C)c2ccc3c(ccn3C)c2)cc(OC)c1OC , test system: HeLa.
7.30

---

# Test system: CAKI-1
# Assay info: Antiproliferative activity against human CAKI-1 cells assessed as reduction in cell viability incubated for 72 hrs by CelltiterGlo luminescent assay
# Settings: CAKI-1, 72 h
Recorded IC50 by entry
Numbers only; they are read as µM.

As a guide, the following entries are already answered.
So what does the record say about IC50 for COc1cc(S(=O)(=O)N(CC#N)c2ccc3c(ccn3C)c2)cc(OC)c1OC ?
0.0562

Further, for COc1cc(S(=O)(=O)N(CC#N)c2ccc3c(c2)c(C=O)cn3C)cc(OC)c1OC ?
0.0662

Further, for COc1cc(S(=O)(=O)Nc2ccc3c(c2)c(C(N)=O)cn3C)cc(OC)c1OC ?
0.31

Further, for COc1cc(S(=O)(=O)Nc2ccc3c(c2)c(C#N)cn3C)cc(OC)c1OC ?
0.0324

Further, for CC(=O)O[C@@]12CO[C@@H]1C[C@H](O)[C@@]1(C)C(=O)[C@H](O)C3=C(C)[C@@H](OC(=O)[C@H](O)[C@@H](NC(=O)OC(C)(C)C)c4ccccc4)C[C@@](O)([C@@H](OC(=O)c4ccccc4)[C@H]21)C3(C)C [DOCETAXEL ANHYDROUS] ?
0.0027

Others:
So what does the record say about IC50 for COc1cc(S(=O)(=O)N(CC#N)c2ccc3c(c2)c(C(N)=O)cn3C)cc(OC)c1OC ?
0.0983

Further, for COc1cc(S(=O)(=O)N(C)c2ccc3c(c2)c(C=O)cn3C)cc(OC)c1OC ?
0.0129

Further, for CCN(c1ccc2c(ccn2C)c1)S(=O)(=O)c1cc(OC)c(OC)c(OC)c1 ?
0.159

---

# System: Tubulin (Homo sapiens) (UniProt P68371+Q9H4B7+P0DPH7+P68366+Q13509+Q71U36+P04350+Q3ZCM7+P07437+P68363+Q9BQE3+Q6PEY2+Q13885+Q9BVA1+Q9BUF5)
# Assay info: Inhibition of tubulin polymerization in human MES-SA cells assessed as appearance of spherical shaped cells at 10 nM incubated for 24 hrs by DAPI staining based confocal microscopy analysis
# Assay type: cell-based
Active and inactive are the calls of the source. The rule behind the calls is not given here.
API: response.call in class 1 (active), class 0 (inactive)

Answer briefly: the call reported for COc1cc(S(=O)(=O)N(C)c2ccc3c(ccn3C)c2)cc(OC)c1OC in this assay.
class 1

Further, for CC[C@]1(O)C[C@H]2CN(CCc3c([nH]c4ccccc34)[C@@](C(=O)OC)(c3cc4c(cc3OC)N(C=O)[C@H]3[C@@](O)(C(=O)OC)[C@H](OC(C)=O)[C@]5(CC)C=CCN6CC[C@]43[C@@H]65)C2)C1 [VINCRISTINE] ?
class 1

Further, for COc1cc(S(=O)(=O)N(CC#N)c2ccc3c(ccn3C)c2)cc(OC)c1OC ?
class 0

Further, for COc1cc(S(=O)(=O)N(C)c2ccc3c(c2)c(C(N)=O)cn3C)cc(OC)c1OC ?
class 1

Further, for COc1cc(S(=O)(=O)Nc2ccc3c(ccn3C)c2)cc(OC)c1OC ?
class 0

Others:
Answer briefly: the call reported for COc1cc(S(=O)(=O)N(C)c2ccc3c(c2)c(C#N)cn3C)cc(OC)c1OC in this assay.
class 1

Further, for COc1cc(S(=O)(=O)Nc2ccc3c(c2)c(C#N)cn3C)cc(OC)c1OC ?
class 0

---

# Assay info: Antiproliferative activity against human HEK293 cells assessed as reduction in cell viability incubated for 72 hrs by CelltiterGlo luminescent assay
# Type: toxicity, cell-based
Recorded IC50 at 72 h by entry
Numbers only; they are read as nM.

So what does the record say about IC50 at 72 h for CC(=O)O[C@H]1C(=O)[C@@]2(C)[C@H]([C@H](OC(=O)c3ccccc3)[C@]3(O)C[C@H](OC(=O)[C@H](O)[C@@H](NC(=O)c4ccccc4)c4ccccc4)C(C)=C1C3(C)C)[C@]1(OC(C)=O)CO[C@@H]1C[C@@H]2O ?
26.8

Others:
So what does the record say about IC50 at 72 h for COc1cc(S(=O)(=O)Nc2ccc3c(ccn3C)c2)cc(OC)c1OC ?
4.9

Further, for COc1cc(S(=O)(=O)N(C)c2ccc3c(ccn3C)c2)cc(OC)c1OC ?
12.3

Further, for COc1cc(S(=O)(=O)N(C)c2ccc3c(c2)c(C#N)cn3C)cc(OC)c1OC ?
29

Further, for COc1cc(S(=O)(=O)N(CC#N)c2ccc3c(c2)c(C#N)cn3C)cc(OC)c1OC ?
17.7

Further, for COc1cc(S(=O)(=O)N(C)c2ccc3c(c2)c(C=O)cn3C)cc(OC)c1OC ?
50.2

Further, for COc1cc(S(=O)(=O)Nc2ccc3c(c2)c(C#N)cn3C)cc(OC)c1OC ?
18.2

Further, for COc1cc(S(=O)(=O)N(CC#N)c2ccc3c(c2)c(C(N)=O)cn3C)cc(OC)c1OC ?
282

---

# Tested on: CAKI-1
# Assay info: Antiproliferative activity against human CAKI-1 cells assessed as reduction in cell viability incubated for 72 hrs by CelltiterGlo luminescent assay
# Settings: CAKI-1, 72 h
Recorded pIC50 by entry
Convention used: pIC50 is expressed as -log10 of the molar concentration.

As a guide, the following entries are already answered.
So what does the record say about pIC50 for CCC1=C[C@@H]2CN(C1)Cc1c([nH]c3ccccc13)[C@@](C(=O)OC)(c1cc3c(cc1OC)N(C)[C@H]1[C@@](O)(C(=O)OC)[C@H](OC(C)=O)[C@]4(CC)C=CCN5CC[C@]31[C@@H]54)C2 [VINORELBINE] ?
9.52

Further, for CC[C@]1(O)C[C@H]2CN(CCc3c([nH]c4ccccc34)[C@@](C(=O)OC)(c3cc4c(cc3OC)N(C=O)[C@H]3[C@@](O)(C(=O)OC)[C@H](OC(C)=O)[C@]5(CC)C=CCN6CC[C@]43[C@@H]65)C2)C1 [VINCRISTINE] ?
8.24

Further, for COc1cc(S(=O)(=O)N(C)c2ccc3c(ccn3C)c2)cc(OC)c1OC ?
7.96

Further, for COc1cc(S(=O)(=O)N(C)c2ccc3c(c2)c(C(N)=O)cn3C)cc(OC)c1OC ?
7.53

Further, for COc1cc(S(=O)(=O)Nc2ccc3c(ccn3C)c2)cc(OC)c1OC ?
8.40

Note: attention shifts to another entry.
So what does the record say about pIC50 for COc1cc(S(=O)(=O)N(CC#N)c2ccc3c(c2)c(C#N)cn3C)cc(OC)c1OC ?
7.53

---

# Test system: MES-SA
# Assay info: Cell cycle distribution in human MES-SA cells assessed as accumulation of cells in G2/M phase cells at 100 nM incubated for 24 hrs by Hoechst 33258 staining based flow cytometry (reference value: 13.3 %)
# Assay type: functional
Recorded Activity by entry
Numbers only; they are read as %.

As a guide, the following entries are already answered.
So what does the record say about Activity for COc1cc(S(=O)(=O)N(C)c2ccc3c(ccn3C)c2)cc(OC)c1OC ?
83.6

Further, for COc1cc(S(=O)(=O)N(C)c2ccc3c(c2)c(C(N)=O)cn3C)cc(OC)c1OC ?
83.6

Further, for COc1cc(S(=O)(=O)Nc2ccc3c(ccn3C)c2)cc(OC)c1OC ?
83.6

Further, for COc1cc(S(=O)(=O)N(CC#N)c2ccc3c(ccn3C)c2)cc(OC)c1OC ?
83.6

Others:
So what does the record say about Activity for COc1cc(S(=O)(=O)N(C)c2ccc3c(c2)c(C#N)cn3C)cc(OC)c1OC ?
83.6

Further, for COc1cc(S(=O)(=O)Nc2ccc3c(c2)c(C#N)cn3C)cc(OC)c1OC ?
83.6

Attribution: ChEMBL document CHEMBL5579852
